Please go through the items and note down their PBM binding z-score.
Test system: RARa:RXR (NR concentration 270 nM, RXRa partner concentration 90 nM)
Assay: PBM binding z-score (relative to random genomic background probes); higher = stronger binding; sequences stand for … in GC…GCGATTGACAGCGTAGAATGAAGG
Enter the number alone.

Please supply the value of reported PBM binding z-score for the item TAGCCTAGGTCATTCAGGGGCCAGTCTAGAAAGC
3.47

Please supply the value of reported PBM binding z-score for the item ACAGACAGGTGAGTGAAGGTAACTCGGCTGGACG
-0.0751

Please supply the value of reported PBM binding z-score for the item TAGCCTACGTCAGATCGGGCCAGTATACGCTATA
-0.618

Please supply the value of reported PBM binding z-score for the item AATACAGGGTCATCGTAGGCCAGTGTACGCACAG
5.01

Please supply the value of reported PBM binding z-score for the item ACTCAAAGTTCAGGACGAGGTAACGTAAAGCACG
2.81

Please supply the value of reported PBM binding z-score for the item TTACCAAGGGGAGCTGAGGTCGTTGATCCAACTC
1.03

Please supply the value of reported PBM binding z-score for the item CCGACGGGGGCATAAGGTTACCATAAGCCAGCCC
3.93

Please supply the value of reported PBM binding z-score for the item ATCTCTAGGTAAAGTACAGTGAAAGATCGATAGA
0.369

Please supply the value of reported PBM binding z-score for the item TCATATAGGTAAATGGTAGGTGAAAGTCCGATCT
1.43

Please supply the value of reported PBM binding z-score for the item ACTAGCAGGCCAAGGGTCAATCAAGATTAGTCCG
4.28

Please supply the value of reported PBM binding z-score for the item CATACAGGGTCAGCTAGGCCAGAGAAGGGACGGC
3.29

Please supply the value of reported PBM binding z-score for the item GATACAGGGTCAGCTAGAGGCCAGTGTATGGAAA
4.54

Please supply the value of reported PBM binding z-score for the item GATACTGGGTCAGCTAGAGGCCAGAGTATGGAAA
2.03

Please supply the value of reported PBM binding z-score for the item CAAACTAGGTCAAGGTCATAGTCGGTTTGTGCCA
5.56

Please supply the value of reported PBM binding z-score for the item TCATATAGGTAATACCGGTGAAAGTCGGCATCTA
1.01

Please supply the value of reported PBM binding z-score for the item ATCGAAGGGTCGAGGTGAGTATAGAGAAAGGGAA
1.74

Please supply the value of reported PBM binding z-score for the item CGTCAAAGTTCAACTAAGGTAAGGTAAAGCACGC
4.42

Please supply the value of reported PBM binding z-score for the item TCTCGGAGGACACGAATGTCAGAGCTTTCCAGAG
-0.129

Please supply the value of reported PBM binding z-score for the item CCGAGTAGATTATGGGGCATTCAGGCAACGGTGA
-0.525

Please supply the value of reported PBM binding z-score for the item CTCCAAAGGTCGTGCTCAGGTGAGTATACCAAAC
4.78

Please supply the value of reported PBM binding z-score for the item CCTAGCAGGCCAGGGTCTCTCAAGCATTTCGCTT
-0.825

Please supply the value of reported PBM binding z-score for the item CCTTACGGGGCACTCCAGGTTATAGCATCGGAGT
0.828

Please supply the value of reported PBM binding z-score for the item CTAGAAAGGTCGTGCTCAGGTGAGTATACCAAAC
4.02

Please supply the value of reported PBM binding z-score for the item TATACAGGGTCAAAGTCCAGAGTACGAATGTCGA
5.3

Please supply the value of reported PBM binding z-score for the item GCTAGCAGGCCATTTGGGTCACTAAATGACGGGC
0.585

Please supply the value of reported PBM binding z-score for the item AGTCAAAGTTCACTAAGTAACGTAAGATTCAGCT
2.77
